The reported numbers originate from patent US20240109930A1.

Let's go through some IC50 measurements on UniProt:P17931 together.
Sequence (P17931 whole entry): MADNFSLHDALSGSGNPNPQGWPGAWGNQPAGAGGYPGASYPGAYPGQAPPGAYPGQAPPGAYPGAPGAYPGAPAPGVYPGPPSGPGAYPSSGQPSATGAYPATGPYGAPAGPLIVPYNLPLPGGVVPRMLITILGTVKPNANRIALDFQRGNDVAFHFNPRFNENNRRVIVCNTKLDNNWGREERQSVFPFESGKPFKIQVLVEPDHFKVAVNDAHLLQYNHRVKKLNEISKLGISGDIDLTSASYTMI
Numbers only, in µM.

[in] # query: IC50 of entry "CO[C@@H]1[C@@H](n2cc(-c3ccc(Cl)c(F)c3F)nn2)[C@@H](O)[C@@H](CO)O[C@@H]1Cc1cn(C23CC(C2)C3)nn1"
[out] 0.05

[in] # query: IC50 of entry "CO[C@@H]1[C@@H](n2cc(-c3ccc(C)c(F)c3F)nn2)[C@@H](O)[C@@H](CO)O[C@@H]1Cn1cc(C2(CO)CC2)nn1"
[out] 0.04

[in] # query: IC50 of entry CO[C@@H]1[C@@H](n2cc(-c3ccc(C)c(F)c3F)nn2)[C@@H](O)[C@@H](CO)O[C@@H]1Cc1cn(C2CC2C(C)C)nn1 (stereo partly drawn)
[out] 0.11

# batch size: 6; output IC50 per entry
1. CO[C@@H]1[C@@H](n2cc(-c3ccc(Br)c(F)c3F)nn2)[C@@H](O)[C@@H](CO)O[C@@H]1Cc1cn(C23CC(C(F)(F)F)(C2)C3)nn1
2. CO[C@@H]1[C@@H](n2cc(-c3ccc(Br)c(F)c3F)nn2)[C@@H](O)[C@@H](CO)O[C@@H]1Cc1cn(C23COC(C)(C2)C3)nn1
3. CO[C@@H]1[C@@H](n2cc(-c3ccc(F)c(F)c3F)nn2)[C@@H](O)[C@@H](CO)O[C@@H]1Cn1cc(C2(C)CCC2)nn1
4. CO[C@@H]1[C@@H](n2cc(-c3ccc(Cl)c(F)c3F)nn2)[C@@H](O)[C@@H](CO)O[C@@H]1Cc1cn([C@]2(C)C[C@@H](O)C2)nn1
5. CO[C@@H]1[C@@H](n2cc(-c3ccc(Cl)c(F)c3F)nn2)[C@@H](O)[C@@H](CO)O[C@@H]1Cc1cn(C2(C(F)F)COC2)nn1
6. CO[C@@H]1[C@@H](n2cc(-c3ccc(Cl)c(F)c3F)nn2)[C@@H](O)[C@@H](CO)O[C@@H]1Cc1cn(C2CC3(COC3)C2)nn1

[out]
1: 0.13; 2: 0.03; 3: 0.08; 4: 0.03; 5: 0.02; 6: 0.09

# batch size: 3; output IC50 per entry
1. CO[C@@H]1[C@@H](n2cc(-c3ccc(F)c(F)c3F)nn2)[C@@H](O)[C@@H](CO)O[C@@H]1Cc1cn(C2(C)CC2)nn1
2. CO[C@@H]1[C@@H](n2cc(-c3ccc(Cl)c(F)c3F)nn2)[C@@H](O)[C@@H](CO)O[C@@H]1Cc1cn(C(C)(C)C(F)(F)F)nn1
3. CO[C@@H]1[C@@H](n2cc(-c3ccc(Cl)c(F)c3F)nn2)[C@@H](O)[C@@H](CO)O[C@@H]1Cc1cn(C23CCC(N)(CC2)CC3)nn1

[out]
[0.05, 0.05, 0.07]
